Source: the supplement of paper PMC8728848

- experimental.system: Fuc(a1-2)Gal(b1-4)GlcNAc(b1-2)Man(a1-3)[Fuc(a1-2)Gal(b1-4)GlcNAc(b1-2)Man(a1-6)]Man(b1-4)GlcNAc(b1-4)GlcNAc
- measurement.protocol: glycan array binding signal (z-score within array); higher = stronger binding
- test.parameters: glycan notation: IUPAC condensed, linker removed
Shown is part of a subset that was picked to be rich in the strongest signals.
# glycan array binding signal (z-score) annotations
reported.metric: glycan array binding signal (z-score)

binder	obs.value
FGFR2-Fc (protein) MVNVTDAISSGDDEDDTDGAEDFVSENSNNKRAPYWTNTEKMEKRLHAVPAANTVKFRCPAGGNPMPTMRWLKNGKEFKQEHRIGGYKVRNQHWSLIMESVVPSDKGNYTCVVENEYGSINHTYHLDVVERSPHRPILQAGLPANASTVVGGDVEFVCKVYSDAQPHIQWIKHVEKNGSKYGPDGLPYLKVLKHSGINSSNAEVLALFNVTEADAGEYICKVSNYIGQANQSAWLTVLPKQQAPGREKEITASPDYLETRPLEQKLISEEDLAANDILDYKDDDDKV	-0.068
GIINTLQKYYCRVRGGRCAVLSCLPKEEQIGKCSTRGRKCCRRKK [Beta-Defensin 3 (Homo sapiens), P81534]	-0.692
Gal 2 (Canis lupus) (protein) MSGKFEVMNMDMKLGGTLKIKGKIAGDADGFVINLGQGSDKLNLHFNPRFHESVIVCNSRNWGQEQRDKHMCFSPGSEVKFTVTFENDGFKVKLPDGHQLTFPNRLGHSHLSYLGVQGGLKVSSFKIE	1.43
BDCA-2 (Homo sapiens), Q8WTT0 (protein) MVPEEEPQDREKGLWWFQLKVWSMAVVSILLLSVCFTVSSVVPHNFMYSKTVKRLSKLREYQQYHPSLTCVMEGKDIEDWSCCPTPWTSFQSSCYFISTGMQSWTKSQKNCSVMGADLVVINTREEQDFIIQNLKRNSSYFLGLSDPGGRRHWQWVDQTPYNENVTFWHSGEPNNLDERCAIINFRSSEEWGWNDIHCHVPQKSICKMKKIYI	-0.085
CAA (Caragana arborescens) (protein) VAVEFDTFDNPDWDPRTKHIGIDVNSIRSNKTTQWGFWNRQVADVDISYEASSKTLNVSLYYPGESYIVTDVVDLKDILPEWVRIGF	2.51
Intelectin-1a (Mus musculus) (protein) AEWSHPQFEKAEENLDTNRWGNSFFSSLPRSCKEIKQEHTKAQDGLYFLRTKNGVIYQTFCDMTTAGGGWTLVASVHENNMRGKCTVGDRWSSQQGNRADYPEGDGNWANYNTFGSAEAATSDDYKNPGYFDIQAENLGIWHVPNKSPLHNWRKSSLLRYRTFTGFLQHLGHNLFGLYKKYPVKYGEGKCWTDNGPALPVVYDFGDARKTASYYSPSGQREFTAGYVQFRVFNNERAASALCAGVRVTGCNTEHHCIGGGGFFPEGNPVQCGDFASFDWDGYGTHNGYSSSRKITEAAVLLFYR	-0.329
DrGal3 (Danio rerio) (protein) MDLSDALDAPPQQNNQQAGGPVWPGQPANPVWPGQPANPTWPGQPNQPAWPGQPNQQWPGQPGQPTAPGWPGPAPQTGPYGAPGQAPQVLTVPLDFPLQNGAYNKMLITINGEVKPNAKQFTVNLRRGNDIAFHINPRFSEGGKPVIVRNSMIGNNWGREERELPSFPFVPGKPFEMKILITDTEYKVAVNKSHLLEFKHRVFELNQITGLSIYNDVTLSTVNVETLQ	-0.218
LecRKVI.2 (protein) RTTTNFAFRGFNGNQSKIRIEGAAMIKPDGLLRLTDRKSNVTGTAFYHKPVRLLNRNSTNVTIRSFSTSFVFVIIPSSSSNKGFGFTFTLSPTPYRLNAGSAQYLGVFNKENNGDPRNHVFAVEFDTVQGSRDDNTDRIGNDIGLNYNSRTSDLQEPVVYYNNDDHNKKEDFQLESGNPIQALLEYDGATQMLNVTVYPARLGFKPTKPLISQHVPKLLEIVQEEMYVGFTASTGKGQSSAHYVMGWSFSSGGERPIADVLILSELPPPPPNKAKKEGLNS	3.27
Mincle (Bos taurus) (protein) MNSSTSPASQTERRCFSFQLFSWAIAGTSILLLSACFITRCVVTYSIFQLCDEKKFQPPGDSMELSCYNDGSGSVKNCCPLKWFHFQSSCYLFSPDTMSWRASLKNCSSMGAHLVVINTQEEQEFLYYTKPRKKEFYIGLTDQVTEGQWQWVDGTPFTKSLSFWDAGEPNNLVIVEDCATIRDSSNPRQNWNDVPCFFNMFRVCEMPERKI	1.4
WGA (Triticum vulgare) (protein) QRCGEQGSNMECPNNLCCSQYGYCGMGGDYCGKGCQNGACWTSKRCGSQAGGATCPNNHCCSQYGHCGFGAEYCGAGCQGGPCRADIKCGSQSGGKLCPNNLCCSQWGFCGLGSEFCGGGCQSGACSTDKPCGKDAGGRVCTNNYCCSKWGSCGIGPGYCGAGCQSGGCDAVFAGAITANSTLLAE	-0.197
